# viability, T/C per entry
test system: 966289-007-R4-J1-PDC complex spheroid viability; test: Anticancer human tumor 966289-007-R4-J1-PDC patient-derived pancreatic adenocarcinoma cell line growth inhibition [RAS]; conditions: second compound 0.01 µM; first compound 3.16 µM; stronger effect = lower value
Report the value in % with no unit label.

Quick check: viability, T/C on 966289-007-R4-J1-PDC complex spheroid viability, item NC1c2ccccc2OC12CCN(c1cnc3c(N4CCCc5ncccc54)n[nH]c3n1)CC2 (configuration not stated) + C=CC(=O)N1CCN(c2nc(OCC3CCCN3C)nc3c(F)c(-c4nc(N)cc(C)c4C(F)(F)F)c(Cl)cc23)C(C)C1 ?
107

Entry CC(=O)OC12COC1CC(O)C1(C)C(=O)C(O)C3=C(C)C(OC(=O)C(O)C(NC(=O)OC(C)(C)C)c4ccccc4)CC(O)(C(OC(=O)c4ccccc4)C21)C3(C)C (configuration not stated) + C=CC(=O)N1CCN(c2nc(OCC3CCCN3C)nc3c(F)c(-c4nc(N)cc(C)c4C(F)(F)F)c(Cl)cc23)C(C)C1 please
31.9

----------
system: 966289-007-R4-J1-PDC complex spheroid viability; assay: Anticancer human tumor 966289-007-R4-J1-PDC cell line growth inhibition [RAS]; settings: second compound 3.16 µM; first compound 10 µM; active means viability on the fitted dose curve at most 10% of control; inactive means the rest;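 also: spheroids exposed to agents for one week before readout; percent viability relative to DMSO vehicle control wells as 100%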
Write down the outcome that applies. Available outcomes: 1 (yes) (active), 0 (no) (inactive)

Solved entries:
C[C@@H](NC(=O)c1ncnc(N)c1Cl)c1ncc(C(=O)Nc2cc(C(F)(F)F)c(Cl)cn2)s1 + C#Cc1c(F)ccc2cc(O)cc(-c3ncc4c(N5CC6CCC(C5)N6)nc(OCC56CCCN5CC(F)C6)nc4c3F)c12    0 (no)
NC1c2ccccc2OC12CCN(c1cnc3c(N4CCCc5ncccc54)n[nH]c3n1)CC2 (stereo not drawn) + C#Cc1c(F)ccc2cc(O)cc(-c3ncc4c(N5CC6CCC(C5)N6)nc(OCC56CCCN5CC(F)C6)nc4c3F)c12    0 (no)

Pending compound:
Could you check what this test reported for CCC(CC)c1cc(NC2CCC(N)C2)n2nccc2n1 (stereo not drawn) + C#Cc1c(F)ccc2cc(O)cc(-c3ncc4c(N5CC6CCC(C5)N6)nc(OCC56CCCN5CC(F)C6)nc4c3F)c12 ?
1 (yes)

----------
test system: 966289-007-R4-J1-PDC complex spheroid viability; assay: Anticancer human tumor 966289-007-R4-J1-PDC cell line growth inhibition [RAS]; details: compound 3.16 µM; active means viability on the fitted dose curve at most 10% of control; inactive means the rest;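 also: spheroids exposed to agents for one week before readout; percent viability relative to DMSO vehicle control wells as 100%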
Outcomes you can answer with include only these: active, inactive

Write down the call the test reported for this compound. Item: CC(=O)OC12COC1CC(O)C1(C)C(=O)C(O)C3=C(C)C(OC(=O)C(O)C(NC(=O)OC(C)(C)C)c4ccccc4)CC(O)(C(OC(=O)c4ccccc4)C21)C3(C)C (stereo not given)
inactive

Continue with CCC(CC)c1cc(NC2CCC(N)C2)n2nccc2n1 (stereo not given)
active

Okay, and CC1(O)CCCC1n1c(=O)c(C(F)F)cc2cnc(NC3CCN(S(C)(=O)=O)CC3)nc21 (stereo not given) ?
inactive

Subsequent entry: CC(C)NCC(C(=O)N1CCN(c2ncnc3c2C(C)CC3O)CC1)c1ccc(Cl)cc1 (stereo not given)
inactive

Queued: C#Cc1c(F)ccc2cc(O)cc(-c3ncc4c(N5CC6CCC(C5)N6)nc(OCC56CCCN5CC(F)C6)nc4c3F)c12 (stereo not given)
inactive
